- TARGET_OR_SYSTEM: human GPBAR1 receptor (Homo sapiens (Human), UniProt Q8TDU6)
- Sequence (Q8TDU6 whole entry): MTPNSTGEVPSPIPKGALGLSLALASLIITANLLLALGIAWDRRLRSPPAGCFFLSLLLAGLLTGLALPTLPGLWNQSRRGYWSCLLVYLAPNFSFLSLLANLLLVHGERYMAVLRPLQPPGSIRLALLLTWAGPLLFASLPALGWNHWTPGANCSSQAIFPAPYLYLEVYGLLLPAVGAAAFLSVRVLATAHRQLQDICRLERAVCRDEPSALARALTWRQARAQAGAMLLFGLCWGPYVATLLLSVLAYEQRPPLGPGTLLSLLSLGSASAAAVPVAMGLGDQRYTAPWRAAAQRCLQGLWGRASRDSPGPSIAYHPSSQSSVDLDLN
- ASSAY_NOTES: functional cAMP assay in CHO-dhfr(minus) cells expressing human GPBAR1 receptors
- REPORTED_CONDITIONS: CHO-dhfr(minus) cells expressing human GPBAR1, 30 min at 30° C.
Counter-ions that a name gives are not always drawn.
Please go through the items and note down their EC50.
Reply with just the number (in nM).

[Q] What does the record list as EC50 for COc1cccc(F)c1-c1ccncc1N(C)C(=O)c1cc(C(F)(F)F)cc(S(C)(=O)=O)c1 [Example 205] ?
[A] 17

[Q] What does the record list as EC50 for Cc1ccc(F)cc1-c1ccncc1N(C)C(=O)c1cc(C(F)(F)F)cc(S(C)(=O)=O)c1 [Example 276] ?
[A] 162

[Q] What does the record list as EC50 for Cc1nc(C)c(-c2ccncc2N(C)C(=O)c2cc(C(F)(F)F)cc(C(F)(F)F)c2)s1 [Example 209] ?
[A] 1470

[Q] What does the record list as EC50 for COc1ncccc1-c1ccncc1N(CC(F)(F)F)C(=O)c1cc(C(F)(F)F)cc(S(C)(=O)=O)c1 [Example 142] ?
[A] 396

[Q] What does the record list as EC50 for COc1cc(F)ccc1-c1ccncc1N(C)C(=O)c1cc(SCCN2CCC2)cc(C(F)(F)F)c1 [Example 259] ?
[A] 134

[Q] What does the record list as EC50 for COc1cc(-c2ccncc2N(C)C(=O)c2cc(C(F)(F)F)cc(C(F)(F)F)c2)c(OC)nn1 [Example 54] ?
[A] 1970

[Q] What does the record list as EC50 for Cc1cc(Cl)ccc1-c1ccncc1N(C)C(=O)c1cc(C(F)(F)F)cc(C(F)(F)F)c1 [Example 30] ?
[A] 1620

[Q] What does the record list as EC50 for O=C(c1cc(C(F)(F)F)cc(C(F)(F)F)c1)N(CC1CC1)c1cnccc1-c1ccccc1Cl [Example 86] ?
[A] 267

[Q] What does the record list as EC50 for Cc1ccc(C(=O)O)cc1-c1ccncc1N(C)C(=O)c1cc(C(F)(F)F)cc(C(F)(F)F)c1 [Example 84] ?
[A] 2020

[Q] What does the record list as EC50 for COc1cnccc1-c1ccncc1N(C)C(=O)c1cc(C(F)(F)F)cc(C(F)(F)F)c1 [Example 69] ?
[A] 377

[Q] What does the record list as EC50 for CN(C(=O)c1cc(C(F)(F)F)cc(C(F)(F)F)c1)c1cnccc1-c1c(F)cccc1F [Example 64] ?
[A] 14

[Q] What does the record list as EC50 for COc1cc(F)ccc1-c1cc(C)ncc1N(CC(F)(F)F)C(=O)c1cc(C(F)(F)F)cc(S(C)(=O)=O)c1 [Example 307] ?
[A] 300

[Q] What does the record list as EC50 for Cc1ccccc1-c1cc(Cl)ncc1N(C)C(=O)c1cc(Cl)cc(Cl)c1 [Example 13] ?
[A] 580

[Q] What does the record list as EC50 for Cc1ccccc1-c1ccncc1N(CCC#N)C(=O)c1cc(C(F)(F)F)cc(C(F)(F)F)c1 [Example 165] ?
[A] 153

[Q] What does the record list as EC50 for COc1cc(F)c(F)cc1-c1ccncc1N(C)C(=O)c1cc(C(F)(F)F)cc(C(F)(F)F)c1 [Example 39] ?
[A] 38

[Q] What does the record list as EC50 for Cc1ccc(F)cc1-c1cc(Cl)ncc1N(C)C(=O)c1cc(C(F)(F)F)cc(S(C)(=O)=O)c1 [Example 253] ?
[A] 3040

[Q] What does the record list as EC50 for Cc1ccccc1-c1ccncc1N(C)C(=O)c1cc(Cl)cc(OC(F)(F)F)c1 [Example 100] ?
[A] 207

[Q] What does the record list as EC50 for O=C(c1cc(C(F)(F)F)cc(C(F)(F)F)c1)N(CC(F)(F)F)c1cnccc1-c1ccccc1Cl [Example 85] ?
[A] 200

[Q] What does the record list as EC50 for COc1cc(F)ccc1-c1cc(C)ncc1N(C)C(=O)c1cc(Br)cc(C(F)(F)F)c1 [Example 303] ?
[A] 18

[Q] What does the record list as EC50 for COc1ncccc1-c1ccncc1N(CC(N)=O)C(=O)c1cc(C(F)(F)F)nc(C(F)(F)F)c1 [Example 183] ?
[A] 206

[Q] What does the record list as EC50 for COc1ncccc1-c1ccncc1N(CC(F)(F)F)C(=O)c1cc(F)cc(C(F)(F)F)c1 [Example 141] ?
[A] 1660

[Q] What does the record list as EC50 for Cc1ccccc1-c1ccncc1N(C)C(=O)c1cc(N2CCCC2=O)cc(C(F)(F)F)c1 [Example 185] ?
[A] 2400

[Q] What does the record list as EC50 for Cc1ccccc1-c1cc(N)ncc1N(C)C(=O)c1cc(C(F)(F)F)cc(C(F)(F)F)c1 [Example 16] ?
[A] 184

[Q] What does the record list as EC50 for COc1cc(F)ccc1-c1ccncc1N(C)C(=O)c1cc(C(F)(F)F)cc(S(=O)(=O)CCNS(C)(=O)=O)c1 [Example 270] ?
[A] 133

[Q] What does the record list as EC50 for CC1CCCCN1c1ccncc1N(C)C(=O)c1cc(Cl)cc(Cl)c1 (stereo not shown) [Example 21, hydrochloride salt] ?
[A] 388

[Q] What does the record list as EC50 for CCc1ccccc1-c1ccncc1N(C)C(=O)c1cc(C(F)(F)F)cc(C(F)(F)F)c1 [Example 168] ?
[A] 41

[Q] What does the record list as EC50 for CS(=O)(=O)c1cc(C(=O)N(CC(N)=O)c2cnccc2-c2ccccc2F)cc(C(F)(F)F)c1 [Example 219] ?
[A] 3030

[Q] What does the record list as EC50 for COc1cccc(-c2ccncc2N(C)C(=O)c2cc(C(F)(F)F)cc(C(F)(F)F)c2)n1 [Example 98] ?
[A] 109

[Q] What does the record list as EC50 for CN(C(=O)c1cc(C(F)(F)F)cc(S(C)(=O)=O)c1)c1cnccc1-c1ccccc1 [Example 323] ?
[A] 104

[Q] What does the record list as EC50 for Cc1ccccc1-c1ccncc1N(C)C(=O)c1ccc(Cl)c(C(F)(F)F)c1 [Example 95] ?
[A] 92

[Q] What does the record list as EC50 for COCCN(C(=O)c1cc(C(F)(F)F)cc(C(F)(F)F)c1)c1cnccc1-c1ccccc1Cl [Example 89] ?
[A] 8
